# experimental target: hALDH1a2 (Homo sapiens)
# protocol: Aldh1a2 enzyme inhibition assay (resorufin fluorescence), human enzyme
# cond: recombinant enzyme, 20° C., activity level classes
pIC50: −log10 of the molar value.
endpoint name: pIC50

// below: answered molecules
- molecule: "Cc1cc(NC(=O)c2ocnc2CC(F)(F)F)cc2c1NC(=O)C1CC21 (centres unmarked)"
  pIC50: "6.60 to 7.00"
- molecule: "CCc1cnsc1C(=O)Nc1cc(C)c2c(c1)C1CC1C(=O)N2 (centres unmarked)"
  pIC50: "> 7.00"
- molecule: "Cc1cc(NC(=O)c2ccncc2-c2ccccc2C#N)cc2c1NC(=O)CC2"
  pIC50: "< 5.30"
- molecule: "CCc1ncsc1C(=O)Nc1cc(C)c2c(c1)C1CC1C(=O)N2 (centres unmarked)"
  pIC50: "> 7.00"

Input: Which pIC50 is reported for this molecule? O=C1CCc2cc(NC(=O)c3ncsc3CC(F)(F)F)cc(Cl)c2N1
Output: 6.60 to 7.00

---

# experimental target: hALDH1a3 (Homo sapiens, UniProt P47895)
# Sequence (P47895 whole entry): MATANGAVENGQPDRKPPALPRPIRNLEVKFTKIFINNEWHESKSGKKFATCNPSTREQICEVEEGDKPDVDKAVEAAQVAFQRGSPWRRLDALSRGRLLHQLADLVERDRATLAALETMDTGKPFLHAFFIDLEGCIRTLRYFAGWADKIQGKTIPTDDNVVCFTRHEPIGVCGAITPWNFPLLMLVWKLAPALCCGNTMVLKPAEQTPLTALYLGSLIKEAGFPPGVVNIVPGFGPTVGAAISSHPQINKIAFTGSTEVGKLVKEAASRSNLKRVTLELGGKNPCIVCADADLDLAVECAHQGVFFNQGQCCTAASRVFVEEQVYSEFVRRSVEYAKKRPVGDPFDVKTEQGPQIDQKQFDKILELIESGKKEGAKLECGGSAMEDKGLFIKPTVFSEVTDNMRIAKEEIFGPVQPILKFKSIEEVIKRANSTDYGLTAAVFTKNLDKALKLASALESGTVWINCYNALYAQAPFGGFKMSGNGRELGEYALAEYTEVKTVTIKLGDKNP
# protocol: Aldh1a3 enzyme inhibition assay (resorufin fluorescence), human enzyme
# cond: recombinant enzyme, 20° C., activity level classes
endpoint name: IC50

Input: For the molecule Cc1cc(NC(=O)c2ccncc2CC2(C)CC2)cc2c1NC(=O)CC2 [Compound 27] , what IC50 is on record?
Output: < 100 nM

Input: For the molecule shown here, Cc1cc(NC(=O)c2scnc2C)cc2c1NC(=O)CC2 [Compound 67] , give the reported IC50.
Output: 250 to 1000 nM

---

# experimental target: hALDH1a2 (Homo sapiens, UniProt O94788)
# Sequence (O94788 whole entry): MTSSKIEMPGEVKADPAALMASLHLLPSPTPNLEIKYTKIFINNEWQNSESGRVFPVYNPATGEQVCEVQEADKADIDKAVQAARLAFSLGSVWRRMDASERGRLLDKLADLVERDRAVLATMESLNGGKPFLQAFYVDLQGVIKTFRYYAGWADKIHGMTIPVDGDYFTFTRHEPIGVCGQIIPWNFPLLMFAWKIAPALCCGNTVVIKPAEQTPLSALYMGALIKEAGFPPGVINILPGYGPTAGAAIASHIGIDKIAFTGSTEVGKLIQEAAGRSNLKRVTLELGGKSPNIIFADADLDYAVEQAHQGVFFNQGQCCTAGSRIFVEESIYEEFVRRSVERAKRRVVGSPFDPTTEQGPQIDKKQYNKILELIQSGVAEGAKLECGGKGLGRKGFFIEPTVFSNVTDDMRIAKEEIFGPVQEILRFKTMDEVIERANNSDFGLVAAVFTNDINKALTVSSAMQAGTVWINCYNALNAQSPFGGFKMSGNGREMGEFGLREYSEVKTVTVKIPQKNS
# protocol: Aldh1a2 enzyme inhibition assay (resorufin fluorescence), human enzyme
# cond: recombinant enzyme, 20° C., activity level classes
endpoint name: IC50

- compound: "Cc1cc(NC(=O)c2scnc2CC2CC2)cc2c1NC(=O)CC2"
  IC50: "100 to 250 nM"

Input: # query: IC50 of entry CCc1nc[nH]c1C(=O)Nc1cc(C)c2c(c1)CCC(=O)N2
Output: 1000 to 5000 nM

Input: Record request: IC50 value, item CCc1ncsc1C(=O)Nc1cc(C)c2c(c1)CCC(=O)N2
Output: 250 to 1000 nM

Input: Entry Cc1cc(NC(=O)c2ccncc2CC2(C)CC2)cc2c1NC(=O)CC2 has what IC50?
Output: 100 to 250 nM

Input: Given Cc1cc(NC(=O)c2scnc2-c2cccc(F)c2)cc2c1NC(=O)CC2 , state its recorded IC50.
Output: 250 to 1000 nM

Input: Find the recorded IC50 belonging to O=C1CCc2cc(NC(=O)c3ccncc3-c3ccccc3)ccc2N1 and report it.
Output: 1000 to 5000 nM

Input: Report IC50 for CCc1scnc1C(=O)Nc1cc(C)c2c(c1)C1CC1C(=O)N2 (stereo not drawn) please.
Output: 250 to 1000 nM

---

# experimental target: mALDH1a2 (Mus musculus)
# Sequence (Q62148 whole entry): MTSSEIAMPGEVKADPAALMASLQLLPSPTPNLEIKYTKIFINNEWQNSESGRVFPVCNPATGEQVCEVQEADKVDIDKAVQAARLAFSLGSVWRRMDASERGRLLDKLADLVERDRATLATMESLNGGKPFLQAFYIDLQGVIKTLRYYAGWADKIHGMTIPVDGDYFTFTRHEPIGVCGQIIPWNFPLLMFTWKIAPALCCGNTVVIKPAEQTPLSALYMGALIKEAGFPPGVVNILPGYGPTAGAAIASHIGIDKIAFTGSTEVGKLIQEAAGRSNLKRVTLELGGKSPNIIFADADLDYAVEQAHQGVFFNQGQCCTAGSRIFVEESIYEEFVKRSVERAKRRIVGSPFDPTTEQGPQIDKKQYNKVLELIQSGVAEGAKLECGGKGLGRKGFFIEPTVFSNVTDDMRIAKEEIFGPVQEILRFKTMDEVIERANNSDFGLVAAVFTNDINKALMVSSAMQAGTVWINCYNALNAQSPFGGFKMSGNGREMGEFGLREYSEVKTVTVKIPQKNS
# protocol: Aldh1a2 enzyme inhibition assay (resorufin fluorescence), mouse enzyme
# cond: recombinant enzyme, 20° C., activity level classes
endpoint name: IC50

Known results for compounds:
- compound: "O=C1CCc2cc(NC(=O)c3scnc3-c3cccc(F)c3)c(F)cc2N1 [Compound 5]"
  IC50: "1 to 5 µM"
- compound: "Cc1cc(NC(=O)c2cnsc2CC(F)(F)F)cc2c1NC(=O)CC2 [Compound 49]"
  IC50: "0.1 to 0.25 µM"
- compound: "CCc1scnc1C(=O)Nc1cc2c(c(C3CC3)c1)NC(=O)CC2 [Compound 45]"
  IC50: "0.25 to 1 µM"
- compound: "Cc1c(F)c(NC(=O)c2scnc2CC(F)(F)F)cc2c1NC(=O)CC2 [Compound 78]"
  IC50: "1 to 5 µM"
- compound: "Cc1cc(NC(=O)c2scnc2CC(F)(F)F)cc2c1NC(=O)C1CC21 (stereo not shown) [Compound 33]"
  IC50: "< 0.1 µM"
- compound: "Cc1cc(NC(=O)c2ccncc2CC2(C)CC2)cc2c1NC(=O)CC2 [Compound 27]"
  IC50: "0.1 to 0.25 µM"

Input: Using the record for CCc1ncoc1C(=O)Nc1cc(F)c2c(c1)C1CC1C(=O)N2 (stereo not shown) [Compound 62] , report its IC50.
Output: > 5 µM

Input: Request the reported IC50 associated with Cc1cc(NC(=O)c2ccncc2CC(F)(F)F)cc2c1NC(=O)CS2(=O)=O [Compound 28]
Output: > 5 µM

Input: Which value of IC50 has been reported for O=C1CCc2cc(NC(=O)c3ccncc3-c3ccccc3F)cc(Cl)c2N1 [Compound 26] in the records?
Output: 0.1 to 0.25 µM

Input: So what's the measured IC50 for this one? Cc1cc(OCCN(C)C(=O)c2cccc(F)c2)cc2c1NC(=O)CC2 [Compound 9]
Output: 1 to 5 µM

Input: // query IC50 value for entry Cc1cc(NC(=O)c2ccncc2-c2ccc(O)cc2)cc2c1NC(=O)CC2 [Compound 19]
Output: 1 to 5 µM

Input: Entry CCc1scnc1C(=O)Nc1cc(C)c2c(c1)C1CC1C(=O)N2 (stereo not shown) [Compound 39] : reported IC50 = ?
Output: 0.25 to 1 µM

Input: Endpoint output: IC50 of Cc1cc(NC(=O)c2ccncc2-c2cccc(C#N)c2)cc2c1NC(=O)CC2 [Compound 12] . Value?
Output: > 5 µM

Input: Using the record for Cc1cc(NC(=O)c2scnc2C)cc2c1NC(=O)CC2 [Compound 67] , report its IC50.
Output: 1 to 5 µM
